target_under_test: Adrenergic receptor alpha-1 (Rattus norvegicus, UniProt P15823+P23944+P43140)
experiment: Ability to block alpha-1 adrenergic receptor-mediated contractions of rat aorta.
Assay type: functional
assay_readout: pA2
Give bare numbers.

// known answers, use as guide
# compound_structure_string, pA2
rows = [
    ("CN1C[C@H](COC(=O)C2CC2)C[C@@H]2c3cccc4[nH]cc(c34)C[C@H]21.O=C(O)/C=C\\C(=O)O", 7.2),
    ("CC(C)n1cc2c3c(cccc31)C1=C[C@@H](CO)CN(C)[C@@H]1C2.O=C(O)/C=C\\C(=O)O", 6.05),
    ("CC(C)n1cc2c3c(cccc31)[C@H]1C[C@@H](COC(=O)C3CCCCCC3)CN(C)[C@@H]1C2.O=C(O)/C=C\\C(=O)O", 4.78),
    ("CN1C[C@H](COC(=O)C2CCC2)C[C@@H]2c3cccc4[nH]cc(c34)C[C@H]21.O=C(O)/C=C\\C(=O)O", 6.59),
    ("CC(C)n1cc2c3c(cccc31)C1=C[C@@H](COC(=O)C3CCC3)CN(C)[C@@H]1C2.O=C(O)/C=C\\C(=O)O", 4.75),
    ("CC(C)n1cc2c3c(cccc31)C1=C[C@@H](COC(=O)C3CCCC3)CN(C)[C@@H]1C2.O=C(O)/C=C\\C(=O)O", 4.57),
]

Quick one: pA2 for CC(C)n1cc2c3c(cccc31)[C@H]1C=C(COC(=O)C3CCCC3)CN(C)[C@@H]1C2.O=C(O)/C=C\C(=O)O ?
4.89

====

experiment: Specificity towards 5-HT2A receptor to that of alpha-1 adrenoceptor.
Format: functional
Provide the recorded Specificity for the entries that follow.
One number for each entry.

// known answers, use as guide
# compound, Specificity
rows = [
    ("CC(C)n1cc2c3c(cccc31)C1=C[C@@H](COC(=O)C3CCCC3)CN(C)[C@@H]1C2.O=C(O)/C=C\\C(=O)O", 4790),
    ("CC(C)n1cc2c3c(cccc31)C1=C[C@@H](COC(=O)C3CCC3)CN(C)[C@@H]1C2.O=C(O)/C=C\\C(=O)O", 2950),
    ("CC(C)n1cc2c3c(cccc31)[C@H]1C=C(COC(=O)C3CCCC3)CN(C)[C@@H]1C2.O=C(O)/C=C\\C(=O)O", 1440),
    ("CC(C)n1cc2c3c(cccc31)[C@H]1C[C@@H](C)CN(C)[C@@H]1C2.O=C(O)/C=C\\C(=O)O", 63),
    ("CC(C)n1cc2c3c(cccc31)[C@H]1C[C@@H](COC(=O)C3CCCCC3)CN(C)[C@@H]1C2.O=C(O)/C=C\\C(=O)O", 355),
    ("CN1C[C@H](COC(=O)C2CCCCCC2)C[C@@H]2c3cccc4[nH]cc(c34)C[C@H]21.O=C(O)/C=C\\C(=O)O", 174),
    ("CC(C)n1cc2c3c(cccc31)[C@H]1C[C@@H](CO)CN(C)[C@@H]1C2.O=C(O)/C=C\\C(=O)O", 240),
    ("CN1C[C@H](COC(=O)C2CC2)C[C@@H]2c3cccc4[nH]cc(c34)C[C@H]21.O=C(O)/C=C\\C(=O)O", 3),
    ("CC(C)n1cc2c3c(cccc31)[C@H]1C=C(CO)CN(C)[C@@H]1C2.O=C(O)/C=C\\C(=O)O", 2820),
    ("CC(C)n1cc2c3c(cccc31)[C@H]1C[C@@H](COC(=O)C3CC3)CN(C)[C@@H]1C2.O=C(O)/C=C\\C(=O)O", 468),
]

Provide the reported Specificity of each entry below, same order.
1. CC(C)n1cc2c3c(cccc31)[C@H]1C=C(COC(=O)C3CCCCC3)CN(C)[C@@H]1C2.O=C(O)/C=C\C(=O)O
2. CC(C)n1cc2c3c(cccc31)C1=C[C@@H](COC(=O)C3CCCCC3)CN(C)[C@@H]1C2.O=C(O)/C=C\C(=O)O
3. CN1C[C@H](COC(=O)C2CCC2)C=C2c3cccc4[nH]cc(c34)C[C@H]21.O=C(O)/C=C\C(=O)O
4. CC(C)n1cc2c3c(cccc31)[C@H]1C[C@@H](COC(=O)C3CCC3)CN(C)[C@@H]1C2.O=C(O)/C=C\C(=O)O
5. CC(C)n1cc2c3c(cccc31)[C@H]1C[C@@H](COC(=O)C3CCCCCC3)CN(C)[C@@H]1C2.O=C(O)/C=C\C(=O)O
6. CN1C[C@H](COC(=O)C2CCC2)C[C@@H]2c3cccc4[nH]cc(c34)C[C@H]21.O=C(O)/C=C\C(=O)O

1: 1410; 2: 1410; 3: 174; 4: 2950; 5: 186; 6: 5

Provide the reported Specificity of each entry below, same order.
1. CN1C[C@H](COC(=O)C2CCCCCC2)C=C2c3cccc4[nH]cc(c34)C[C@H]21.O=C(O)/C=C\C(=O)O
2. CN1CC(COC(=O)C2CCCC2)=C[C@@H]2c3cccc4[nH]cc(c34)C[C@H]21.O=C(O)/C=C\C(=O)O
3. CN1C[C@H](COC(=O)C2CCCCC2)C[C@@H]2c3cccc4[nH]cc(c34)C[C@H]21.O=C(O)/C=C\C(=O)O
4. CO[C@H]1CC[C@H](C(=O)OCC2=C[C@@H]3c4cccc5[nH]cc(c45)C[C@H]3N(C)C2)CC1.O=C(O)/C=C\C(=O)O
5. CN1C[C@H](COC(=O)C2CCCCC2)C=C2c3cccc4[nH]cc(c34)C[C@H]21.O=C(O)/C=C\C(=O)O
6. CN1C[C@H](COC(=O)C2CC2)C=C2c3cccc4[nH]cc(c34)C[C@H]21.O=C(O)/C=C\C(=O)O
7. CN1C[C@H](COC(=O)C2CCCC2)C[C@@H]2c3cccc4[nH]cc(c34)C[C@H]21.O=C(O)/C=C\C(=O)O

[95, 21, 52, 17, 68, 55, 35]

Provide the reported Specificity of each entry below, same order.
1. COC1CCC(C(=O)OCC2=C[C@@H]3c4cccc5c4c(cn5C(C)C)C[C@H]3N(C)C2)CC1.O=C(O)/C=C\C(=O)O (stereo partly drawn)
2. CC(C)n1cc2c3c(cccc31)C1=C[C@@H](CO)CN(C)[C@@H]1C2.O=C(O)/C=C\C(=O)O
3. CC1=C[C@@H]2c3cccc4c3c(cn4C(C)C)C[C@H]2N(C)C1.O=C(O)/C=C\C(=O)O
4. CN1CC(COC(=O)C2CCC2)=C[C@@H]2c3cccc4[nH]cc(c34)C[C@H]21.O=C(O)/C=C\C(=O)O
5. CO[C@H]1CC[C@H](C(=O)OCC2=C[C@@H]3c4cccc5c4c(cn5C(C)C)C[C@H]3N(C)C2)CC1.O=C(O)/C=C\C(=O)O

[1260, 1260, 316, 5, 2880]
